Target: Glutamate NMDA receptor; Grin1/Grin2a (Rattus norvegicus) (UniProt P35439+Q00959)
Assay: Agonist activity at rat GluN1/GluN2A NMDA receptor expressed in Xenopus oocytes assessed as maximal relative efficacy measured after 4 days in presence of L-glutamte by two-electrode voltage-clamp recording assay relative to glycine
Assay type: cell-based
Conditions: Oocyte, time 4.0 day
Kindly state Rmax for each of the entries shown.
Supply the numeric figure in %, leaving out any unit text.

Given the compound `N[C@H](CNC(=O)c1ccc(-c2cccc(C(F)(F)F)c2)o1)C(=O)O` , what is its reported Rmax?
17

What Rmax value was documented for this compound, `N[C@H](CNC(=O)c1ccc(-c2ccccc2C(F)(F)F)o1)C(=O)O` ?
24

Rmax for `N[C@H](CNC(=O)c1ccc(-c2cccc(Cl)c2)o1)C(=O)O` ?
27

# query: Rmax of entry `N[C@H](CNC(=O)c1ccc(-c2ccc(Cl)c(Cl)c2)o1)C(=O)O`
20

Reported Rmax, compound `N[C@H](CNC(=O)c1ccc(-c2ccc(Cl)cc2)o1)C(=O)O` : ____
14

Consider the compound shown here: `COCc1ccccc1-c1ccc(C(=O)NC[C@@H](N)C(=O)O)o1` What is its recorded Rmax?
32

Data request, read-out Rmax, for `CN(C)S(=O)(=O)c1ccccc1-c1ccc(C(=O)NC[C@@H](N)C(=O)O)o1`
22

Item under review: `N[C@H](CNC(=O)c1ccc(-c2ccccc2Br)o1)C(=O)O` . Reported Rmax?
34

Entry `N[C@H](CNC(=O)c1ccc(-c2ccccc2Cl)o1)C(=O)O` has what Rmax?
38

Item under review: `N[C@H](CNC(=O)c1ccc(-c2cccc3ccccc23)o1)C(=O)O` . Reported Rmax?
29

Looking for the measured Rmax of `N[C@H](CNC(=O)c1ccc(-c2ccccc2)o1)C(=O)O` , can you help?
22

====

Molecular target: Glutamate NMDA receptor; Grin1/Grin2b (Rattus norvegicus) (UniProt P35439+Q00960)
Assay: Agonist activity at rat GluN1/GluN2B NMDA receptor expressed in Xenopus oocytes assessed as maximal relative efficacy measured at 100 uM after 4 days in presence of L-glutamte by two-electrode voltage-clamp recording assay relative to glycine
Assay type: cell-based
Conditions: Oocyte, time 4.0 day
Can you tell me Rmax for the items I'm about to list?

May I ask what Rmax has been recorded for `N[C@H](CNC(=O)c1ccc(-c2ccccc2Br)o1)C(=O)O` ?
< 5%

Item `COc1ccc(-c2ccc(C(=O)NC[C@@H](N)C(=O)O)o2)cc1` has what recorded Rmax?
< 5%

Given the entry `N[C@H](CNC(=O)c1ccc(-c2ccccc2C(F)(F)F)o1)C(=O)O` , report its measured Rmax.
< 5%

Can you share its Rmax? I mean this compound: `N[C@H](CNC(=O)c1ccc(-c2ccc(Cl)cc2[N+](=O)[O-])o1)C(=O)O`
< 5%

Reported Rmax for `N[C@H](CNC(=O)c1ccc(-c2ccccc2/C=C/c2cccc(F)c2)o1)C(=O)O` : what is it?
< 5%

I'd like to know its Rmax. The compound in question is `N[C@H](CNC(=O)c1ccc(-c2ccc(Cl)cc2)o1)C(=O)O`
< 5%

====

What log10 of EC50 was measured for each of the following?
Target: Glutamate NMDA receptor; Grin1/Grin2c (Rattus norvegicus, UniProt P35439+Q00961)
Sequence (Q00961 whole entry, other chains not shown): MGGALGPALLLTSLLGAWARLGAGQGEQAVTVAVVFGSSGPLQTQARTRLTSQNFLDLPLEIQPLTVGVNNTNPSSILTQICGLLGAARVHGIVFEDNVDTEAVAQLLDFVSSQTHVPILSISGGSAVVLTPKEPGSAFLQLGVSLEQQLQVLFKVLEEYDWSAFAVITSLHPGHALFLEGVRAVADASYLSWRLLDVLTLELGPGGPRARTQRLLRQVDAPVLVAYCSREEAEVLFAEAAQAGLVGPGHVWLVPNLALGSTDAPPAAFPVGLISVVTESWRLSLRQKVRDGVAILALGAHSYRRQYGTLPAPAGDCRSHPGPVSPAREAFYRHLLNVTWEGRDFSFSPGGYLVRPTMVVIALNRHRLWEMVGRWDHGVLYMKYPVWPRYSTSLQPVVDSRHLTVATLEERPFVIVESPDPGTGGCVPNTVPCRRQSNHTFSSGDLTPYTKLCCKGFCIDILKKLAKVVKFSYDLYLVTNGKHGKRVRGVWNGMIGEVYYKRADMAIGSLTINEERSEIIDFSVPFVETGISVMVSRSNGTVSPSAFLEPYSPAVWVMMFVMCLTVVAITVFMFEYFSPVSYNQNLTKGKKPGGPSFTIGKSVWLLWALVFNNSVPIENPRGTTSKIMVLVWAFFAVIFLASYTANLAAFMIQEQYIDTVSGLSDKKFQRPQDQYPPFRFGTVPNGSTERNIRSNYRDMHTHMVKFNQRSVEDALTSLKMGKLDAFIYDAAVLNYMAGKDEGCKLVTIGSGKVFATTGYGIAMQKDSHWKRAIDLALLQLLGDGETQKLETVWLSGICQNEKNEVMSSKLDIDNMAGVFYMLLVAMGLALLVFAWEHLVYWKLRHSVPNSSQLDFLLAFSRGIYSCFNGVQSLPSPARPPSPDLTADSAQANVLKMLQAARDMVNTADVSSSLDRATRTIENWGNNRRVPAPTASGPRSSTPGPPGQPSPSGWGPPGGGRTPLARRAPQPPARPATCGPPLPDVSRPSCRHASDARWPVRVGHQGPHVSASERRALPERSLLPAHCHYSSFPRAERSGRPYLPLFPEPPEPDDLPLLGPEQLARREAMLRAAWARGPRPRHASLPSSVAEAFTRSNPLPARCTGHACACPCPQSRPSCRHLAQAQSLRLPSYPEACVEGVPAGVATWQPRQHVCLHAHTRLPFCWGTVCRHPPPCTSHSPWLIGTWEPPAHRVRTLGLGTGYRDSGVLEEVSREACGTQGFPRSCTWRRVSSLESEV
Test: Agonist activity at rat GluN1/GluN2C NMDA receptor expressed in Xenopus oocytes measured after 4 days in presence of L-glutamte by two-electrode voltage-clamp recording assay
Each number you see is log10 of EC50, and the unit inside the log is nM.

Any idea what its log10 of EC50 is? The compound is `N[C@H](CNC(=O)c1ccc(-c2ccccc2Br)o1)C(=O)O`
1.56

Could you share which log10 of EC50 value was measured for `CCc1ccccc1-c1ccc(C(=O)NC[C@@H](N)C(=O)O)o1` ?
1.80

Name the reported log10 of EC50 value associated with the compound `N[C@H](CNC(=O)c1ccc(-c2ccccc2Cl)o1)C(=O)O`
2.08

Look at this compound and give its reported log10 of EC50. `N[C@H](CNC(=O)c1ccc(-c2cccc3ccccc23)o1)C(=O)O`
2.04

Name the reported log10 of EC50 value associated with the compound `COc1ccc(-c2ccc(C(=O)NC[C@@H](N)C(=O)O)o2)cc1`
3.11

Sample `N[C@H](CNC(=O)c1ccc(-c2cccc(Cl)c2)o1)C(=O)O` — what was its log10 of EC50?
3.11

Look up log10 of EC50: `N[C@H](CNC(=O)c1ccc(-c2ccccc2OCc2ccccc2)o1)C(=O)O`
3.60

Need log10 of EC50, item `N[C@H](CNC(=O)c1ccc(-c2ccc(Cl)c(Cl)c2)o1)C(=O)O`
3.62

Which log10 of EC50 is reported for this compound? `N[C@H](CNC(=O)c1ccc(-c2ccccc2/C=C/c2ccccc2)o1)C(=O)O`
3.76

So what does the record say about log10 of EC50 for `COCc1ccccc1-c1ccc(C(=O)NC[C@@H](N)C(=O)O)o1` ?
3.20

// log10 of EC50 lookup, key: `Cc1ccccc1-c1ccc(C(=O)NC[C@@H](N)C(=O)O)o1`
2.15

====

Molecular target: Ionotropic glutamate receptor NMDA 1/2D (Rattus norvegicus) (UniProt P35439+Q62645)
Experiment: Agonist activity at rat GluN1/GluN2D NMDA receptor expressed in Xenopus oocytes assessed as maximal relative efficacy measured after 4 days in presence of L-glutamte by two-electrode voltage-clamp recording assay relative to glycine
Assay type: cell-based
Conditions: Oocyte, time 4.0 day
Record form. Attribute: Rmax. Fill in for each entry.
Write down the numeric answer in % and omit the unit.

What does the record list as Rmax for `N[C@H](CNC(=O)c1ccc(-c2cccc3ccccc23)o1)C(=O)O` ?
12

GET /values?readout=Rmax&item= `COCc1ccccc1-c1ccc(C(=O)NC[C@@H](N)C(=O)O)o1`
11

# Rmax lookup, item `N[C@H](CNC(=O)c1ccc(-c2cccc(C(F)(F)F)c2)o1)C(=O)O`
35

Quick check: Rmax of `Cc1ccccc1-c1ccc(C(=O)NC[C@@H](N)C(=O)O)o1` ?
17

Query: Rmax; subject: `N[C@H](CNC(=O)c1ccc(-c2ccccc2)o1)C(=O)O`
16

Would you mind telling me what Rmax value was observed for `N[C@H](CNC(=O)c1ccc(-c2ccc(Cl)c(Cl)c2)o1)C(=O)O` ?
24

Which Rmax is reported for this molecule? `N[C@H](CNC(=O)c1ccc(-c2cccc(Cl)c2)o1)C(=O)O`
38

// query Rmax value for entry `N[C@H](CNC(=O)c1ccc(-c2ccccc2Br)o1)C(=O)O`
9

So what's the measured Rmax for this one? `N[C@H](CNC(=O)c1ccc(-c2ccccc2Cl)o1)C(=O)O`
11

====

Target: Glutamate NMDA receptor; Grin1/Grin2b (Rattus norvegicus, UniProt P35439+Q00960)
Experiment: Agonist activity at rat GluN1/GluN2B NMDA receptor expressed in Xenopus oocytes measured after 4 days in presence of L-glutamte by two-electrode voltage-clamp recording assay
Please go through the items and note down their IC50.
Numeric only. Scale: µM

Request - read-out IC50 | tested on Glutamate NMDA receptor; Grin1/Grin2b (Rattus norvegicus, UniProt P35439+Q00960) | compound `CCc1ccccc1-c1ccc(C(=O)NC[C@@H](N)C(=O)O)o1`
10

Please tell me: IC50 of `N[C@H](CNC(=O)c1ccc(-c2ccc(Cl)cc2[N+](=O)[O-])o1)C(=O)O` , system Glutamate NMDA receptor; Grin1/Grin2b (Rattus norvegicus, UniProt P35439+Q00960)?
10

====

Target: Glutamate NMDA receptor; Grin1/Grin2c (Rattus norvegicus, UniProt P35439+Q00961)
Assay: Agonist activity at rat GluN1/GluN2C NMDA receptor expressed in Xenopus oocytes measured after 4 days in presence of L-glutamte by two-electrode voltage-clamp recording assay
Provide the reported log10(EC50) of each item.
Give log10 of EC50, with EC50 taken in nM.

Given the entry `N[C@H](CNC(=O)c1ccc(-c2ccc(Cl)cc2)o1)C(=O)O` , report its measured log10(EC50).
3.23

Returns the measured log10(EC50) for the input compound. Input: `N[C@H](CNC(=O)c1ccc(-c2cccc3c2OCCO3)o1)C(=O)O`
3.59

Endpoint output: log10(EC50) of `N[C@H](CNC(=O)c1ccc(-c2ccccc2/C=C/c2cccc(F)c2)o1)C(=O)O` . Value?
2.88

Can you share its log10(EC50)? I mean this compound: `N[C@H](CNC(=O)c1ccc(-c2cccc(C(F)(F)F)c2)o1)C(=O)O`
3.26

Any idea what its log10(EC50) is? The compound is `N[C@H](CNC(=O)c1ccc(-c2ccccc2C(F)(F)F)o1)C(=O)O`
1.60

Fill in: log10(EC50) of `N[C@H](CNC(=O)c1ccc(-c2ccc(Cl)cc2[N+](=O)[O-])o1)C(=O)O` is ___
1.87

I would be grateful if you could share the reported log10(EC50) for `N[C@H](CNC(=O)c1ccc(-c2ccccc2)o1)C(=O)O` .
3.46

What value of log10(EC50) has been recorded for this entry: `CN(C)S(=O)(=O)c1ccccc1-c1ccc(C(=O)NC[C@@H](N)C(=O)O)o1`
3.68
